assay-target: T1, human GIP receptor (human, UniProt P48546 22-466)
T1 sequence (looked up): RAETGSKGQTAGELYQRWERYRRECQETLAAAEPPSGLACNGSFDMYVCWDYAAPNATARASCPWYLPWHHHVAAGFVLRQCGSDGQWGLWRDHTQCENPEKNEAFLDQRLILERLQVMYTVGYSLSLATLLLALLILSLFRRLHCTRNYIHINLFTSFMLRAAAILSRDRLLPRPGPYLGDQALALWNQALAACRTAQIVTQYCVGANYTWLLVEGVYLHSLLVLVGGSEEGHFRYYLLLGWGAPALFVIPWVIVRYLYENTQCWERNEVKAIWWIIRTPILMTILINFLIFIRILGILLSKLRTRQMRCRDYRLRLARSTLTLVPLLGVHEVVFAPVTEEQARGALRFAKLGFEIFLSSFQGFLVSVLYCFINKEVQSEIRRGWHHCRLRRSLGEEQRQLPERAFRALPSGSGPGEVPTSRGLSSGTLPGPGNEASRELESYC
measurement-description: cell-based or functional assay
Bridge positions count the residues as written; N and C are the ends. Square brackets hold non-standard residues; d marks the D form. Ends that are not written are not given here. * marks the point of attachment. Acetyl(2-(4-imidazolyl)) = O=C(Cc1c[nH]cn1)*; Aib = CC(C)(N)C(=O)O
Response field label takes met when In vitro activity compared to native-type peptide (%), vs GIP is strictly below 3% and not met in all other cases.

>  <binder>
H[Aib]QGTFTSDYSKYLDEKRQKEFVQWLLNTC (bridge 16-20) [triple agonist of SEQ ID NO: 51]

>  <category-label>
met

$$$$
>  <binder>
H[Aib]QGTFTSDVSSYLLGQAAKQFIAWLVKGGGPSSGAPPPSC [triple agonist of SEQ ID NO: 3]

>  <category-label>
met

$$$$
>  <binder>
H[Aib]QGTFTSDVSSYLLGQQQKEFIAWLVKGGGPSSGAPPPSC [triple agonist of SEQ ID NO: 5]

>  <category-label>
met

$$$$
>  <binder>
H[Aib]QGTFTSDVSKYLDGQAAQEFVAWLLAGC [triple agonist of SEQ ID NO: 9]

>  <category-label>
met

$$$$
>  <binder>
[Acetyl(2-(4-imidazolyl))][Aib]QGTFTSDYSICMDEIHQKDFVNWLLNTK (bridge 16-20) [triple agonist of SEQ ID NO: 49]

>  <category-label>
not met

$$$$
>  <binder>
H[Aib]QGTFTSDCSKYLDSRAAQDFVQWLLDGGPSSGAPPPS [triple agonist of SEQ ID NO: 26]

>  <category-label>
met

$$$$
>  <binder>
H[Aib]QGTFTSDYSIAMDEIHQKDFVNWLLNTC (bridge 16-20) [triple agonist of SEQ ID NO: 57]

>  <category-label>
met

$$$$
>  <binder>
[Acetyl(2-(4-imidazolyl))]GQGTFTSDYSIQLDEIAVRDFVEWLKNGGPSSGAPPPSHG [triple agonist of SEQ ID NO: 14]

>  <category-label>
met

$$$$
>  <binder>
H[Aib]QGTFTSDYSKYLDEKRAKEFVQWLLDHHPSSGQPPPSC (bridge 16-20) [triple agonist of SEQ ID NO: 50]

>  <category-label>
met

$$$$
>  <binder>
Y[Aib]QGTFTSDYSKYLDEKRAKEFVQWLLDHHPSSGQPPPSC (bridge 16-20) [triple agonist of SEQ ID NO: 42]

>  <category-label>
not met

$$$$
>  <binder>
H[Aib]QGTFTSDKSKYLDECAAQDFVQWLLDGGPSSGAPPPS [triple agonist of SEQ ID NO: 41]

>  <category-label>
met

$$$$
>  <binder>
Y[Aib]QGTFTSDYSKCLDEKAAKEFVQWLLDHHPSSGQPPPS (bridge 16-20) [triple agonist of SEQ ID NO: 68]

>  <category-label>
not met

$$$$
